Target: Human HER3, endogenous, on human cancer cell lines (SK-Br-3, MCF7, BT-474) (human, UniProt P21860 20-1342)
Sequence (P21860 20-1342): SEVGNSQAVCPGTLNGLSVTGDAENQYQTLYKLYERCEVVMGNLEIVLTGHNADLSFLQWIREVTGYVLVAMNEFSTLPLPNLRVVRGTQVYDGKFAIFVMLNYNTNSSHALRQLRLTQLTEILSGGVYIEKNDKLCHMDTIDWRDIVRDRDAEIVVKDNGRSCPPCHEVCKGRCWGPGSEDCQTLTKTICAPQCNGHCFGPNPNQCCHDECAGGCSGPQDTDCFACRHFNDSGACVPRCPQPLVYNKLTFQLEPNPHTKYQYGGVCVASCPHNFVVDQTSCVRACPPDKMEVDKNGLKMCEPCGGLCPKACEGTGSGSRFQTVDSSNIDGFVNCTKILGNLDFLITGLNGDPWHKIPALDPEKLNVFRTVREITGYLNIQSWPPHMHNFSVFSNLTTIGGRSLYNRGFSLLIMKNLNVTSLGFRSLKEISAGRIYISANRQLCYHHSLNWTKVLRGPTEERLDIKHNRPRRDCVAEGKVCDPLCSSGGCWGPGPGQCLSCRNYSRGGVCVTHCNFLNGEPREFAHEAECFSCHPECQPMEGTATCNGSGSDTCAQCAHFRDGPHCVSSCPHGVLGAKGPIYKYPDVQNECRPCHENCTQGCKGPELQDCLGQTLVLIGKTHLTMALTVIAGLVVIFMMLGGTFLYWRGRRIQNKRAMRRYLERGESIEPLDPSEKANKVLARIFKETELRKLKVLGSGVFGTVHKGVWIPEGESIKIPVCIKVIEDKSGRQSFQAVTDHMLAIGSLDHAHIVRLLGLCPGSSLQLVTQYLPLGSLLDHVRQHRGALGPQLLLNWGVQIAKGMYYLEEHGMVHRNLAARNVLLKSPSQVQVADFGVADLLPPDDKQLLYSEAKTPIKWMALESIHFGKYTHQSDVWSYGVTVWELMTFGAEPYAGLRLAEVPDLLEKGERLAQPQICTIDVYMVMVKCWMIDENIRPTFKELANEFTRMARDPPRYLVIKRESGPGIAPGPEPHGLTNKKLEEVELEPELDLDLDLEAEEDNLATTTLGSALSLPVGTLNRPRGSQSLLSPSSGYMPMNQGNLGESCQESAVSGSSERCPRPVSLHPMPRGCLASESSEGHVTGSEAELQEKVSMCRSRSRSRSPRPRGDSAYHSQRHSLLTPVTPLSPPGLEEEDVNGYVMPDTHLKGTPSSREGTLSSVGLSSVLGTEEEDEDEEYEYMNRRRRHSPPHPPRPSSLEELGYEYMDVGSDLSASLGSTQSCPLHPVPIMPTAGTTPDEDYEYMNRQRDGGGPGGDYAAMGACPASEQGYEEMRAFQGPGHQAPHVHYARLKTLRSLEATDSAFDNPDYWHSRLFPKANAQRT
Test: cell-based or functional assay
OBSERVABLE: SK-Br-3 pHER3 % inhibition (%)
Numeric answer only, unit % assumed.

Below: 4 binders and their reported SK-Br-3 pHER3 % inhibition.
The value of SK-Br-3 pHER3 % inhibition measured for the binder MOR13768 (antibody, human IgG1, kappa, V domains shown, tested as IgG) VH: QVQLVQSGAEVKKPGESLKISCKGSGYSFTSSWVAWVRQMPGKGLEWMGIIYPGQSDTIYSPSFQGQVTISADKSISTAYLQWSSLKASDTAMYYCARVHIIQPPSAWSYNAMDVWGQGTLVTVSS VL: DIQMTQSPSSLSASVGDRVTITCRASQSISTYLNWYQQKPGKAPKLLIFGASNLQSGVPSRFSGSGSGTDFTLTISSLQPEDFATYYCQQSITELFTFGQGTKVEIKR turned out to be 81

In plain terms, MOR14535 (antibody, human IgG1, kappa, V domains shown, tested as IgG) VH: EVQLVQSGAEVKKPGESLKISCKGSGYSFTTTWVAWVRQMPGKGLEWMGIIYPGLSDTIYSPSFQGQVTISADKSISTAYLQWSSLKASDTAMYYCARVHIIQPPSAWSYNAMDVWGQGTLVTVSS VL: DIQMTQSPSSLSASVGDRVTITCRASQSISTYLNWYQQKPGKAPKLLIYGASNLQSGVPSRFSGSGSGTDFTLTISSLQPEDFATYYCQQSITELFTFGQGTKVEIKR has a documented SK-Br-3 pHER3 % inhibition of 76

Memo: MOR13869 (antibody, human IgG1, kappa, V domains shown, tested as IgG) VH: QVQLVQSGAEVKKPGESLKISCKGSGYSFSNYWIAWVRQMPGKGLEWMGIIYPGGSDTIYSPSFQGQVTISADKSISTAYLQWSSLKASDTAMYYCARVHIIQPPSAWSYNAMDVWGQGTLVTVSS VL: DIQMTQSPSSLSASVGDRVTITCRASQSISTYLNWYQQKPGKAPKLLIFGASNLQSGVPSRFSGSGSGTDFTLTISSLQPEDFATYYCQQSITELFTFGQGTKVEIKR , reported SK-Br-3 pHER3 % inhibition: 77

Form field SK-Br-3 pHER3 % inhibition, entry MOR13763 (antibody, human IgG1, kappa, V domains shown, tested as IgG) VH: QVQLVQSGAEVKKPGESLKISCKGSGYSFTSYWVAWVRQMPGKGLEWMGIIYPGQSDTIYSPSFQGQVTISADKSISTAYLQWSSLKASDTAMYYCARVHIIQPPSAWSYNAMDVWGQGTLVTVSS VL: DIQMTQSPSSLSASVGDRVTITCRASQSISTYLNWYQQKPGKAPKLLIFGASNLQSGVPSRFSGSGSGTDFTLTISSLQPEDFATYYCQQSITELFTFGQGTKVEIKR : 77

Further cases:
The reported value for MOR12924 (antibody, human IgG1, kappa, V domains shown) VH: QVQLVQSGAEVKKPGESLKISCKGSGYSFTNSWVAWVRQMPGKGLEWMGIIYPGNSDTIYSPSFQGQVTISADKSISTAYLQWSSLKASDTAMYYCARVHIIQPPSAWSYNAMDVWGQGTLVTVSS VL: DIQMTQSPSSLSASVGDRVTITCRASQSISTYLNWYQQKPGKAPKLLIFGASNLQSGVPSRFSGSGSGTDFTLTISSLQPEDFATYYCQQSVWEPATFGQGTKVEIKR in terms of SK-Br-3 pHER3 % inhibition is 76

Entry MOR12923 (antibody, human IgG1, kappa, V domains shown) VH: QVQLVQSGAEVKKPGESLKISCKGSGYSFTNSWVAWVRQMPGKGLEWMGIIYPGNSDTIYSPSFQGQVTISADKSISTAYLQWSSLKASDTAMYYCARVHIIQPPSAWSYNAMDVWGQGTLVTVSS VL: DIQMTQSPSSLSASVGDRVTITCRASQSISTYLNWYQQKPGKAPKLLIFGASNLQSGVPSRFSGSGSGTDFTLTISSLQPEDFATYYCQQSMYLPFTFGQGTKVEIKR — recorded SK-Br-3 pHER3 % inhibition = 74

// field: SK-Br-3 pHER3 % inhibition; key: MOR13762 (antibody, human IgG1, kappa, V domains shown, tested as IgG) VH: QVQLVQSGAEVKKPGESLKISCKGSGYSFTNTWVAWVRQMPGKGLEWMGIIYPGQSDTIYSPSFQGQVTISADKSISTAYLQWSSLKASDTAMYYCARVHIIQPPSAWSYNAMDVWGQGTLVTVSS VL: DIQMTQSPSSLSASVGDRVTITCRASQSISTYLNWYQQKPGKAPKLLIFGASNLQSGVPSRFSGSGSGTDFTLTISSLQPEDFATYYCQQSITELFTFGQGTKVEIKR ; value = 70
